- measurement.target: X-box-binding protein 1 (Homo sapiens) (UniProt P17861)
- assay.explanation: XBP1 reporter suppression in cells – counter-screen, dose response (AID 504313);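 note: CHO cells carrying an XBP1 reporter stimulated with tunicamycin; potency is for inhibition of the tunicamycin-induced reporter signal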
- protocol.conditions: XBP1 reporter cell assay, percent of control
Calls of active or inactive are those of the source. The rule behind the calls is not given here.
Your response should consist of one outcome taken from true (1) = active, false (0) = inactive

Solved cases below.
[[record]]
molecule = "CC(C)C[C@H](NC(=O)OC(C)(C)C)c1nnc(SCC(=O)Nc2ccc(Br)cc2)o1"
cat = "true (1)"

[[record]]
molecule = "CCCCCCN1C=CC(=C2C(=O)c3ccccc3C2=O)C=C1"
cat = "false (0)"

[[record]]
molecule = "CC(C)NC(=O)c1ccccc1NC(=O)/C=C/c1cccc([N+](=O)[O-])c1"
cat = "false (0)"


**Query** # outcome recorded in this test, key = CCSc1nc2ccccc2n1C(=O)/C=C/c1ccc(OC)c(OC)c1
**Result** true (1)

**Query** # outcome recorded in this test, key = CCN1/C(=C\C=C\C2=[N+](CC)c3ccccc3C2(C)C)C(C)(C)c2ccccc21
**Result** true (1)

**Query** # outcome recorded in this test, key = OC(CNCC(c1ccc(Cl)cc1Cl)c1c[nH]c2ccccc12)c1ccccc1 (stereo unspecified)
**Result** false (0)

**Query** # outcome recorded in this test, key = CCC(Cc1ccccc1)n1c(=S)[nH]c2ccccc2c1=O (stereo unspecified)
**Result** false (0)

**Query** # outcome recorded in this test, key = CCNC(=S)N/N=C/c1cc(Br)cc(Br)c1OC
**Result** false (0)

**Query** # outcome recorded in this test, key = CCCCC(CC)C(=O)Oc1ccc(O)c(C(C)(C)C)c1 (stereo unspecified)
**Result** false (0)

**Query** # outcome recorded in this test, key = O=C1CC(c2ccco2)CC(O)=C1C=Nc1ccccc1-c1ccccc1 (stereo unspecified)
**Result** false (0)

* * *

- measurement.target: X-box-binding protein 1 (Homo sapiens) (UniProt P17861)
- assay.explanation: XBP1 reporter suppression in cells – counter-screen, dose response (AID 504313)
- protocol.conditions: XBP1 reporter cell assay, percent of control
Active and inactive are the calls of the source. How the calls were made is not given here.
Your response should consist of one outcome taken from True for active, False for inactive

Solved cases below.
[[record]]
compound = "COc1cccc(NC(=O)CSc2nnc(-c3cc(C)n(-c4ccccc4)c3C)o2)c1"
measurement_target = "X-box-binding protein 1 (Homo sapiens) (UniProt P17861)"
cat = "True"

[[record]]
compound = "CC1=Nc2nc(N3CCCCC3)c(C#N)c3c4c(nc(c23)N1)N(c1ccc(C(C)C)cc1)C(=O)C4"
measurement_target = "X-box-binding protein 1 (Homo sapiens) (UniProt P17861)"
cat = "False"

[[record]]
compound = "C/C=C(\\C)C(=O)OC1C(C)=C2C(C1OC(=O)CCCCC)C(C)(OC(C)=O)CC(OC(=O)CCC)C1(O)C2OC(=O)C1(C)O (stereo not given)"
measurement_target = "X-box-binding protein 1 (Homo sapiens) (UniProt P17861)"
cat = "True"

[[record]]
compound = "CC(=O)C1=C(c2ccc(Br)cc2)C(=O)c2ccccc2C1=O"
measurement_target = "X-box-binding protein 1 (Homo sapiens) (UniProt P17861)"
cat = "True"

[[record]]
compound = "O=C(/C=C/c1cccc(C(F)(F)F)c1)Nc1cccc(C(F)(F)F)c1"
measurement_target = "X-box-binding protein 1 (Homo sapiens) (UniProt P17861)"
cat = "False"


**Query** # outcome recorded in this test, key = O=C1/C(=C/c2ccncc2)SC(=S)N1C1CCS(=O)(=O)C1 (stereo not given)
**Result** False

**Query** # outcome recorded in this test, key = CC(C)(C)c1ccc(-c2noc(CCC(N)=O)n2)cc1
**Result** False

**Query** # outcome recorded in this test, key = Cc1ccc(N2C(=O)NC(=O)/C(=C\C=C\c3ccco3)C2=O)cc1C
**Result** False

**Query** # outcome recorded in this test, key = CC(C)(C)C1CCC(C(=O)OCC(=O)c2ccc[nH]2)CC1 (stereo not given)
**Result** False

**Query** # outcome recorded in this test, key = CCOC(=O)c1cnc(-n2nc(C)cc2C)nc1NC1CCCCC1
**Result** False

* * *

- measurement.target: X-box-binding protein 1 (Homo sapiens) (UniProt P17861)
- assay.explanation: XBP1 reporter suppression in cells – counter-screen, dose response (AID 504313);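 note: CHO cells carrying an XBP1 reporter stimulated with tunicamycin; potency is for inhibition of the tunicamycin-induced reporter signal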
- protocol.conditions: XBP1 reporter cell assay, percent of control
Calls of active or inactive are those of the source. No rule for the calls is given here.
Your response should consist of one outcome taken from 1 (yes) for active, 0 (no) for inactive

Solved cases below.
[[record]]
molecule = "CCOC(=O)c1nc(S(C)(=O)=O)ncc1Cl"
measurement_target = "X-box-binding protein 1 (Homo sapiens) (UniProt P17861)"
cat = "0 (no)"

[[record]]
molecule = "OC(c1cccc(OCc2ccccc2)c1)c1nnc(-c2ccccc2)o1 (stereo unspecified)"
measurement_target = "X-box-binding protein 1 (Homo sapiens) (UniProt P17861)"
cat = "0 (no)"

[[record]]
molecule = "NC(N)=N/N=C/c1cn(-c2ccccc2)nc1-c1cccs1"
measurement_target = "X-box-binding protein 1 (Homo sapiens) (UniProt P17861)"
cat = "0 (no)"

[[record]]
molecule = "OC(CNCC1CCCO1)Cn1c2ccc(Br)cc2c2cc(Br)ccc21 (stereo unspecified)"
measurement_target = "X-box-binding protein 1 (Homo sapiens) (UniProt P17861)"
cat = "0 (no)"


**Query** # outcome recorded in this test, key = Cn1cnc([N+](=O)[O-])c1S(=O)(=O)c1cccc(Cl)c1
**Result** 0 (no)

**Query** # outcome recorded in this test, key = CCN(CC)S(=O)(=O)c1cccc(NC(=O)Nc2cccc(C(F)(F)F)c2)c1
**Result** 0 (no)

* * *

- measurement.target: X-box-binding protein 1 (Homo sapiens) (UniProt P17861)
- assay.explanation: XBP1 reporter suppression in cells – counter-screen, dose response (AID 504313);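 note: CHO cells carrying an XBP1 reporter stimulated with tunicamycin; potency is for inhibition of the tunicamycin-induced reporter signal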
- protocol.conditions: XBP1 reporter cell assay, percent of control
Activity calls are given as the source filed them. No rule for the calls is given here.
observation.type: IC50

[[record]]
compound = "COc1ccc(Cn2c(C)c(C)c(C#N)c2NC(=O)Nc2ccc(Cl)cc2)cc1"
readout_value = "> 10 µM (inactive)"

[[record]]
compound = "O=S(=O)(N/N=C/c1ccc(Cl)cc1)c1ccc(Cc2ncc(C(F)(F)F)cc2Cl)s1"
readout_value = "inactive"

[[record]]
compound = "COC(=O)c1ccc2c(=O)n(CCCCCC(=O)N3CCN(c4ccccc4)CC3)c(=O)[nH]c2c1"
readout_value = "> 10 µM (inactive)"

[[record]]
compound = "COc1ccc(C2CC(c3c(-c4ccccc4)c4cc(Cl)ccc4[nH]c3=O)=NN2S(C)(=O)=O)cc1OC (stereo unspecified)"
readout_value = "inactive"

[[record]]
compound = "CCCC(=O)OCCNc1cc(Sc2nc3ccccc3[nH]2)c2nonc2c1[N+](=O)[O-]"
readout_value = "inactive"


# IC50 measured on X-box-binding protein 1 (Homo sapiens) (UniProt P17861) for item Cc1cc(C)n(-c2nc(Nc3ccccc3C(F)(F)F)nc(-n3nc(C)cc3C)n2)n1 = inactive

# IC50 measured on X-box-binding protein 1 (Homo sapiens) (UniProt P17861) for item O=C(c1ccc(COc2ccc(Cl)cc2)o1)N1N=C(C(F)F)CC1(O)C(F)F (stereo unspecified) = inactive

# IC50 measured on X-box-binding protein 1 (Homo sapiens) (UniProt P17861) for item CC(C)C[C@H](NC(=O)c1[nH]cnc1C(=O)Nc1ccccc1)C(=O)OC(C)(C)C = inactive

# IC50 measured on X-box-binding protein 1 (Homo sapiens) (UniProt P17861) for item CC1CCCC(NCC(O)COC(c2ccc(F)cc2)c2ccc(F)cc2)C1C (stereo unspecified) = inactive

# IC50 measured on X-box-binding protein 1 (Homo sapiens) (UniProt P17861) for item CCCCCCCn1c(=O)c(C(=O)Nc2cnccn2)c(O)c2ccccc21 = 2.1 µM

# IC50 measured on X-box-binding protein 1 (Homo sapiens) (UniProt P17861) for item CCN(CC)CCn1c(SCC(=O)Nc2ccc(F)cc2)nc2c(sc3ccccc32)c1=O = > 10 µM (inactive)

# IC50 measured on X-box-binding protein 1 (Homo sapiens) (UniProt P17861) for item CCOC(=O)c1c(-n2c(C)cc(C=C3C(=O)NC(=S)NC3=O)c2C)sc2c1CCCC2 = inactive

# IC50 measured on X-box-binding protein 1 (Homo sapiens) (UniProt P17861) for item Cc1ccc(-c2nc(-c3ccccn3)no2)cc1 = inactive

# IC50 measured on X-box-binding protein 1 (Homo sapiens) (UniProt P17861) for item O=S1(=O)C=C(Sc2nnc(-c3ccccc3)o2)c2ccccc21 = inactive

* * *

- measurement.target: X-box-binding protein 1 (Homo sapiens)
- assay.explanation: XBP1 reporter suppression in cells – counter-screen, dose response (AID 504313);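 note: CHO cells carrying an XBP1 reporter stimulated with tunicamycin; potency is for inhibition of the tunicamycin-induced reporter signal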
- protocol.conditions: XBP1 reporter cell assay, percent of control
Activity calls are given as the source filed them. How the calls were made is not given here.
observation.type: IC50

Example molecules with recorded IC50:
[[record]]
molecule = "O=C(Cc1ccccc1)NC(=S)Nc1cccc(C(F)(F)F)c1"
measurement_target = "X-box-binding protein 1 (Homo sapiens)"
readout_value = "inactive"

[[record]]
molecule = "C/C(=N\\N=C1\\NC(=O)C(CC(=O)Nc2ccc(C)c(Cl)c2)S1)C(C)(C)C (stereo unspecified)"
measurement_target = "X-box-binding protein 1 (Homo sapiens)"
readout_value = "4.96 µM"

[[record]]
molecule = "Nc1ccc(SC(F)(F)F)cc1C(=O)c1ccccc1"
measurement_target = "X-box-binding protein 1 (Homo sapiens)"
readout_value = "inactive"

[[record]]
molecule = "O=c1c(Cl)c(Cl)cnn1Cc1nnc(-c2ccccc2Br)o1"
measurement_target = "X-box-binding protein 1 (Homo sapiens)"
readout_value = "inactive"

[[record]]
molecule = "O=C1N(c2ccccc2)C[C@@H]2C[C@@H](c3cccs3)N3CCC[C@@]123"
measurement_target = "X-box-binding protein 1 (Homo sapiens)"
readout_value = "2.84 µM"

[[record]]
molecule = "CCOc1ccc2nc(NC(=O)CSc3nc4c(c(=O)n(C)c(=O)n4C)n3C(C)C)sc2c1"
measurement_target = "X-box-binding protein 1 (Homo sapiens)"
readout_value = "> 10 µM (inactive)"

[[record]]
molecule = "O=C1c2ccccc2C(=O)C1c1nccc2ccccc12"
measurement_target = "X-box-binding protein 1 (Homo sapiens)"
readout_value = "inactive"

[[record]]
molecule = "CCOc1ccc(C2C=C(c3ccc(C)cc3)Nc3nnnn32)cc1 (stereo unspecified)"
measurement_target = "X-box-binding protein 1 (Homo sapiens)"
readout_value = "> 10 µM (inactive)"


get_value(item= O=C1CC(Sc2nnnn2-c2ccccc2)C(=O)N1c1cccc(Cl)c1 (stereo unspecified) , readout=IC50) returns > 10 µM (inactive)

get_value(item= COC(=O)[C@]12OC[C@]34C([C@@H](O)[C@@H]1O)[C@]1(C)CC(=O)C(O)=C(C)[C@@H]1C[C@H]3OC(=O)[C@H](O)[C@@H]24 (stereo partly specified) , readout=IC50) returns inactive

get_value(item= CC1=C/C(=N\OS(=O)(=O)c2ccccc2)C=CC1=O , readout=IC50) returns 2.9 µM

get_value(item= COc1ccc(N/N=C(\C=N\O)C(=O)c2ccc(OC)cc2)cc1 , readout=IC50) returns > 10 µM (inactive)

get_value(item= CCCCCc1ccc(OCCOCCn2c[n+](C)c3ccccc32)c(CCCCC)c1 , readout=IC50) returns inactive

get_value(item= COC(=O)c1ccc2c(c1)C(C)(C)C(/C=C/c1ccc(O)cc1)=[N+]2C , readout=IC50) returns > 10 µM (inactive)

get_value(item= O=S(=O)(C/C(=C/CO)S(=O)(=O)c1ccccc1)c1ccccc1 , readout=IC50) returns 3.44 µM

get_value(item= CCC(NC(=O)Nc1nnc(C(F)(F)F)s1)(C(F)(F)F)C(F)(F)F , readout=IC50) returns 2 µM
